# Test system: HCT-15
The threshold is 20 µM. Values of GI50 beneath it are tagged Criterion met; values meeting or exceeding it are tagged Criterion not met.

- MOLECULE: "[O-][Cl+3]([O-])([O-])[O-].[O-][Cl+3]([O-])([O-])[O-].c1ccn2c(N3CCOCC3)[n+]3c4ccccc4[n+]4c(N5CCOCC5)n5ccccc5c4c3c2c1"
  GROUP: "Criterion not met"
- MOLECULE: "O=c1[nH]c(=O)n(COCc2ccccc2)c2ccsc12"
  GROUP: "Criterion not met"
- MOLECULE: "C=CCONC(=O)c1ccc(Cl)cc1"
  GROUP: "Criterion not met"
- MOLECULE: "ClCCNCCNCCCl.ClCCNCCNCCCl.[O-][Cl+3]([O-])([O-])O"
  GROUP: "Criterion not met"
- MOLECULE: "O=C1c2ccsc2-c2cccc3cccc1c23.O=C1c2sccc2-c2cccc3cccc1c23"
  GROUP: "Criterion met"
- MOLECULE: "CCOC(=O)Nn1c(C)nnc1-c1ccccc1"
  GROUP: "Criterion not met"
- MOLECULE: "CC1(C)OCC2OC3([C@H]4OC(C)(C)O[C@@H]4CO)OC(C)(C)OC3C2O1 (stereo partly specified)"
  GROUP: "Criterion not met"
- MOLECULE: "N#CC(NNC(=O)c1c(Cl)c(Cl)c(Cl)c(Cl)c1-c1nc2cc(C(=O)c3ccccc3)ccc2[nH]1)c1ccccc1 (stereo unspecified)"
  GROUP: "Criterion met"
- MOLECULE: "NNC(=O)CNC(=O)CSc1nnc(COc2ccc(Cl)cc2)n1-c1ccccc1"
  GROUP: "Criterion not met"
- MOLECULE: "COc1ccc(/C(=N/O)c2ccccc2-c2nc3ccccc3c(=O)n2-c2ccc(S(=O)(=O)Nc3ncccn3)cc2)cc1C"
  GROUP: "Criterion met"
- MOLECULE: "CC(O)(CCCCCl)c1nc2ccccc2s1 (stereo unspecified)"
  GROUP: "Criterion not met"
- MOLECULE: "Cc1ccc([N+](=O)[O-])c2c(NCCCN(C)C)ccnc12"
  GROUP: "Criterion not met"
- MOLECULE: "COC(=O)c1cc(Br)c(C(=O)C(Cl)(Cl)Cl)[nH]1"
  GROUP: "Criterion not met"
- MOLECULE: "CCN(c1ccc(Br)cc1)c1c(Br)c(=O)nc2ccccn12"
  GROUP: "Criterion not met"
- MOLECULE: "O=c1[nH]c2nc[nH]c2c(=O)n1C1CCCCC1"
  GROUP: "Criterion not met"
- MOLECULE: "C=CC(Cl)(CBr)CCC(Br)C(C)(C)Cl (stereo unspecified)"
  GROUP: "Criterion met"
- MOLECULE: "O=c1[nH]c(=O)n(C2CC(O)C(COP(=O)(OCC(Cl)(Cl)Cl)OCC(Cl)(Cl)Cl)O2)cc1F (stereo unspecified)"
  GROUP: "Criterion not met"

###

# Test system: NCI-H522
# METHOD_NOTES: NCI tumour cell line growth inhibition, 48 h
Calls of active or inactive are those of the source. Rule as the data show it: active = GI50 up to about 1.1 µM and inactive = higher.
Outcome codes: active, inactive

- COMPOUND: "CCOC(=O)[C@H](Cc1ccc(O)cc1)/N=C1/[C@H]2CCC[C@]1(O)[C@@](C)([N+](=O)[O-])C2"
  GROUP: "inactive"
- COMPOUND: "COC(=O)C12OCC34C(CC5C(C)=C(O)C(=O)CC5(C)C3C(O)C1O)OC(=O)C(OC(=O)C=C(C)C)C24 (configuration not stated)"
  GROUP: "inactive"
- COMPOUND: "O=C(O)CSCC(=O)c1ccccc1"
  GROUP: "inactive"
- COMPOUND: "C=C(CCOC)CCC1CCCCC(CN(C)C)C1=O (configuration not stated)"
  GROUP: "inactive"
- COMPOUND: "O=c1cc(CBr)c2ccc(O)cc2o1"
  GROUP: "inactive"
- COMPOUND: "CCOC(=O)c1cc(C2(O)CCN(Cc3ccccc3)C2=O)c(-c2cc(C)no2)[nH]1 (configuration not stated)"
  GROUP: "inactive"
- COMPOUND: "C[C@]12CC[C@H]3[C@@H](CCC4=CC(=O)CC[C@@H]43)[C@@H]1CC[C@@H]2OC1(O)C(=O)c2ccccc2C1=O"
  GROUP: "inactive"
- COMPOUND: "COc1ccc([C@H](NC(=O)c2ccccc2)[C@@H](O)C(=O)O[C@H]2C[C@@]3(O)C(OC(=O)c4ccccc4)C4[C@](C)(C(=O)[C@H](OC(C)=O)C(=C2C)C3(C)C)[C@@H](O)C[C@H]2OC[C@@]42OC(C)=O)cc1 (some centres not stated)"
  GROUP: "active"
- COMPOUND: "Cc1cc(C)nc(NS(=O)(=O)c2ccc(NC(=O)c3cccc4c(Nc5ccc(S(=O)(=O)N=C(N)N)cc5)c5ccc(Cl)cc5nc34)cc2)n1"
  GROUP: "inactive"
- COMPOUND: "OCCCCCNc1cc(O)nc(O)n1"
  GROUP: "inactive"
- COMPOUND: "COC(=O)C(Cc1cc(OC)c(OC)c(OC)c1)(NC(=O)c1ccccc1)P(=O)(OC)OC (configuration not stated)"
  GROUP: "inactive"
- COMPOUND: "COc1cc(C2c3cc4c(cc3[C@H](NC(=O)c3cccs3)C3COC(=O)[C@H]23)OCO4)cc(OC)c1OC (some centres not stated)"
  GROUP: "active"
- COMPOUND: "O=C(NCc1ccccc1)C1C(=O)C(=O)N(Cc2ccccc2)C1=O (configuration not stated)"
  GROUP: "inactive"
- COMPOUND: "OCC#CCNCl"
  GROUP: "inactive"
- COMPOUND: "CCNc1cc2c3c(c1)CCN3CCC2"
  GROUP: "inactive"
- COMPOUND: "COc1ccc(-c2c(C(C)=O)c(-c3ccccc3)n(C3OC(COC(C)=O)C(OC(C)=O)C(OC(C)=O)C3OC(C)=O)c(=S)c2C#N)cc1 (configuration not stated)"
  GROUP: "inactive"
- COMPOUND: "COCC1OC(OC2OCC3OC4(OCC(O)(C(C)OC)C5OCOC54)OC3C2OC)C(OC)C(O)C1OC1OC(C)C(OC)C(OC2OC(C)C3OC4(CC(O)C(OC5CC(OC6CC(C)([N+](=O)[O-])C(OC)C(C)O6)C(OC(=O)c6c(C)c(Cl)c(O)c(Cl)c6OC)C(C)O5)C(C)O4)OC3(C)C2O)C1O (configuration not stated)"
  GROUP: "inactive"

###

# System: OVCAR-5
# METHOD_NOTES: NCI tumour cell line growth inhibition, 48 h
Activity calls are given as the source filed them. No stated cut-off is given here; in the data, active = GI50 up to about 1.1 µM and inactive = higher.
VALUE_KIND: GI50

- COMPOUND: "C[C@H](CCC(=O)NN)[C@H]1CC[C@H]2[C@@H]3CC[C@@H]4C[C@H](O)CC[C@]4(C)[C@H]3CC[C@]12C"
  ENDPOINT_VALUE: "> 88.3 µM (inactive)"
- COMPOUND: "CCOC(=O)c1cc(C2(O)CCN(Cc3ccccc3)C2=O)c(-c2cc(C)no2)[nH]1 (stereo not drawn)"
  ENDPOINT_VALUE: "61.4 µM (inactive)"
- COMPOUND: "CN1CC(c2ccccc2)C(O)(C2(c3ccccc3)CN(C)CC(c3ccccc3)C2=O)C(c2ccccc2)C1 (stereo not drawn)"
  ENDPOINT_VALUE: "> 100 µM (inactive)"
- COMPOUND: "Cc1c(Cl)ccc2c1NC(=O)C2(O)CC(=O)c1ccc(Cl)cc1Cl (stereo not drawn)"
  ENDPOINT_VALUE: "> 50 µM (inactive)"
- COMPOUND: "COC(=O)c1cc(Br)c(C(=O)C(Cl)(Cl)Cl)[nH]1"
  ENDPOINT_VALUE: "> 100 µM (inactive)"
- COMPOUND: "COC(=O)C(Cc1ccccc1)NC(=O)C(CCCNC(=N)N)NC(=O)OCc1ccccc1 (stereo not drawn)"
  ENDPOINT_VALUE: "> 100 µM (inactive)"
- COMPOUND: "COc1ccc(OC)c(CCc2cc(OC)c(OC)cc2C)c1"
  ENDPOINT_VALUE: "> 100 µM (inactive)"
- COMPOUND: "O=C1C(c2ccccc2)=C(c2ccccc2)C(c2ccc(CCCCCCc3ccc(C4=C(c5ccccc5)C(=O)C(c5ccccc5)=C4c4ccccc4)cc3)cc2)=C1c1ccccc1"
  ENDPOINT_VALUE: "> 100 µM (inactive)"
- COMPOUND: "C/C1=C/C2=CC(C)C[C@@H]2C(=O)[C@]2(C)C(=O)CC(C)(C)[C@H]2CC1=O (stereo partly drawn)"
  ENDPOINT_VALUE: "> 50 µM (inactive)"
- COMPOUND: "Nc1ncnc2c1ncn2CCCCC(=O)O"
  ENDPOINT_VALUE: "> 100 µM (inactive)"
- COMPOUND: "CCOP(=O)(OCC)/C(C#N)=C/c1cccn1N(C)C"
  ENDPOINT_VALUE: "> 100 µM (inactive)"
- COMPOUND: "O=C1C[C@@H](c2ccccc2)NCCCCN(O)CCCN1"
  ENDPOINT_VALUE: "> 100 µM (inactive)"
- COMPOUND: "COc1ccc(/C=N/NS(=O)(=O)c2ccccc2)cc1"
  ENDPOINT_VALUE: "> 100 µM (inactive)"
- COMPOUND: "NS(=O)(=O)c1cc(S(N)(=O)=O)c(NC(=O)N(c2ccccc2)c2ccccc2)c(Cl)c1Cl"
  ENDPOINT_VALUE: "42.1 µM (inactive)"
- COMPOUND: "NNC(=O)Cc1cccnc1"
  ENDPOINT_VALUE: "> 100 µM (inactive)"
- COMPOUND: "COC(=O)c1sc2c(c1C(=O)OC)/C(=N/C(C)(C)C)S/C2=N\\C(C)(C)C"
  ENDPOINT_VALUE: "20.6 µM (inactive)"
- COMPOUND: "Oc1nc2c(c(-c3ccc(Br)cc3)n1)COC/C2=C\\c1ccc(Br)cc1"
  ENDPOINT_VALUE: "> 50 µM (inactive)"
- COMPOUND: "CN(CCO)/N=N/c1n[nH]cc1C(N)=O"
  ENDPOINT_VALUE: "> 100 µM (inactive)"
- COMPOUND: "CC[C@@H]1NC(C(=O)OC)Cc2c1[nH]c1ccccc21 (stereo partly drawn)"
  ENDPOINT_VALUE: "> 100 µM (inactive)"
- COMPOUND: "COc1ccc(NC2Oc3cc4c(cc3C(c3cc(OC)c(OC)c(OC)c3)C2C)OCO4)cc1 (stereo not drawn)"
  ENDPOINT_VALUE: "2.17 µM (inactive)"
- COMPOUND: "C[C@]12CC[C@H](O)CC1=CC[C@@H]1[C@@H]2CC[C@]2(C)c3nc(Cl)ccc3C[C@@H]12"
  ENDPOINT_VALUE: "> 80.9 µM (inactive)"
- COMPOUND: "O=c1ccc2c(Cl)sc(Cl)c2[nH]1"
  ENDPOINT_VALUE: "> 100 µM (inactive)"
- COMPOUND: "O=C(CCN1CCCC1)c1ccc(Oc2ccc(F)cc2)cc1"
  ENDPOINT_VALUE: "> 100 µM (inactive)"
- COMPOUND: "Nc1nccc(NCC2(CO)CC(CCc3ccccc3)C2)n1 (stereo not drawn)"
  ENDPOINT_VALUE: "14 µM (inactive)"
- COMPOUND: "CC[C@@]1(CCC(=O)NCCc2c[nH]c3ccccc23)CCC(=O)N2CCc3c([nH]c4ccccc34)[C@H]21"
  ENDPOINT_VALUE: "22.8 µM (inactive)"
- COMPOUND: "OCCSCc1ccccc1"
  ENDPOINT_VALUE: "> 100 µM (inactive)"
- COMPOUND: "CC(/C=C/C(=O)c1sc(-n2nc(-c3ccccc3)cc2-c2ccccc2)nc1C)=C\\c1ccccc1"
  ENDPOINT_VALUE: "> 10 µM (inactive)"
- COMPOUND: "CC1=C(C(=S)Nc2ccc(Cl)c(C(=O)OC(C)C)c2)SCCO1"
  ENDPOINT_VALUE: "34.6 µM (inactive)"
- COMPOUND: "COc1ccc(-n2c(=O)n(C)c(=O)n2-c2ccc(OC)cc2)cc1"
  ENDPOINT_VALUE: "> 100 µM (inactive)"
- COMPOUND: "N#CC(NNC(=O)c1c(Cl)c(Cl)c(Cl)c(Cl)c1-c1nc2cc(C(=O)c3ccccc3)ccc2[nH]1)c1ccccc1 (stereo not drawn)"
  ENDPOINT_VALUE: "26.5 µM (inactive)"
- COMPOUND: "COC(=O)C(c1n[nH]c2ccccc12)C(C(=O)OC)c1n[nH]c2ccccc12 (stereo not drawn)"
  ENDPOINT_VALUE: "> 100 µM (inactive)"
- COMPOUND: "COc1ccc(/C=c2/[nH]c(=O)/c(=C\\c3ccc(OCc4ccccc4)cn3)[nH]c2=O)cc1"
  ENDPOINT_VALUE: "> 100 µM (inactive)"
- COMPOUND: "CCCCCCCCCCCCCCCCNC(=O)/C(O)=C/C(=O)c1ccc(C)cc1"
  ENDPOINT_VALUE: "> 10 µM (inactive)"
- COMPOUND: "CC1(c2cccc(C3CCC4(C=CC3=O)OCCO4)c2)OCCO1 (stereo not drawn)"
  ENDPOINT_VALUE: "18.2 µM (inactive)"
- COMPOUND: "O=C(NCc1ccccc1)C1C(=O)C(=O)N(Cc2ccccc2)C1=O (stereo not drawn)"
  ENDPOINT_VALUE: "> 100 µM (inactive)"
- COMPOUND: "COc1ccc(C2C(Cl)C(=O)N2NC(=O)c2ccc(NC(C)=O)cc2)cc1 (stereo not drawn)"
  ENDPOINT_VALUE: "> 100 µM (inactive)"
- COMPOUND: "O=C(CC1Sc2ccccc2NC1=O)Nc1cc(Cl)ccc1Cl (stereo not drawn)"
  ENDPOINT_VALUE: "> 100 µM (inactive)"
- COMPOUND: "CC(=O)c1c(C)[n+]([O-])c2cc(C)c(C)cc2[n+]1[O-]"
  ENDPOINT_VALUE: "> 100 µM (inactive)"
